test: Stability of ester promoiety in deuterated PBS buffer; format: physicochemical; conditions: deuterated PBS buffer, pH 7.4
metricName: half-life

Q: Return reported half-life. Input compound: CCOC(=O)CC(O)(CF)CCOC(C)=O (stereo not shown) [38c]
Ans: > 48 h

----------
tested on: Streptococcus pneumoniae strain TIGR4; test: Minimal inhibitory concentration; type: cell-based; settings: Streptococcus pneumoniae, TIGR4, 24 h
metricName: MIC

INSERT INTO results (compound, recordedmeasurement) VALUES
  ('O=C(CC1(C(F)(F)F)CCOC(=O)O1)OCc1ccc(F)cc1 (centres unmarked) [25a]', '1600 µM');

Q: Return reported MIC. Input compound: CC(=O)OCCC(O)(CF)CC(=O)NCc1ccccc1 (centres unmarked) [38a]
Ans: > 1600 µM

Q: Return reported MIC. Input compound: COC(=O)CC(O)(CF)CCOC(C)=O (centres unmarked) [38b]
Ans: > 1600 µM

Q: Return reported MIC. Input compound: O=C(CC1(C(F)(F)F)CCOC(c2ccccc2)O1)NCc1ccccc1 (centres unmarked) [32b]
Ans: > 1600 µM

Q: Return reported MIC. Input compound: O=C(CC1(CF)CCOC(=O)O1)OCc1ccc(F)cc1 (centres unmarked) [18a]
Ans: > 1600 µM

Q: Return reported MIC. Input compound: O=C1CC(O)(C(F)(F)F)CCO1 (centres unmarked)
Ans: 800 µM

Q: Return reported MIC. Input compound: O=C(CC1(CF)CCOC(=O)O1)OCc1ccccc1 (centres unmarked)
Ans: > 1600 µM

Q: Return reported MIC. Input compound: CCOC(=O)CC(O)(CF)CCOC(C)=O (centres unmarked) [38c]
Ans: > 1600 µM

# credit: paper PMC4291291
